This listing pairs compounds with measured pIC50.
# target: human recombinant ETA receptors (Homo sapiens, UniProt P25101)
# Sequence (P25101 21-427): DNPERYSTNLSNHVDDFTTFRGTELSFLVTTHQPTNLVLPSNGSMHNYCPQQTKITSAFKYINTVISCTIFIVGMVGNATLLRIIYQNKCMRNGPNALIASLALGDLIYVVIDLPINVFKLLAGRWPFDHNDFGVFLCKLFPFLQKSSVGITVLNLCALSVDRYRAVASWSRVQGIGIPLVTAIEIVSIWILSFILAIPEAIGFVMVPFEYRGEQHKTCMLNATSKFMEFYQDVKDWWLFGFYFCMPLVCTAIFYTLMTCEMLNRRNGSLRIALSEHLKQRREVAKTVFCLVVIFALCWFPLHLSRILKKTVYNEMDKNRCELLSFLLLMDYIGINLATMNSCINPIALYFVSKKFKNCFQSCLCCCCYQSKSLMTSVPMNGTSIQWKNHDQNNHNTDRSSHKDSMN
# experiment.description: Inhibition of [125I]ET-1 binding to membranes from CHO cells carrying human ETA receptors
# assay.context: CHO cell membranes, 8 pM [125I]ET-1, 2 h at 20° C.
pIC50: −log10 of the molar value.

{"compound": "Cc1cccc(/C=C/S(=O)(=O)Nc2ncnc(OCCOc3ncc(Br)cn3)c2-c2ccc(Cl)cc2)c1 [Example 52]", "pIC50": 8.12}
{"compound": "COc1cnc(OCCOc2nc(N3CCOCC3)nc(NS(=O)(=O)/C(C)=C/c3ccccc3)c2Oc2ccccc2OC)nc1 [Example 203]", "pIC50": 8.47}
{"compound": "Cc1ccc(-c2c(NS(=O)(=O)/C=C/c3ccccc3)ncnc2OCCOc2ncccn2)cc1 [Example 2]", "pIC50": 7.60}
{"compound": "COc1ccccc1Oc1c(NS(=O)(=O)/C=C/c2ccccc2)nc(-c2ncccn2)nc1OCCOc1ncccn1 [Example 152]", "pIC50": 7.36}
{"compound": "O=S(=O)(/C=C/c1ccccc1)Nc1ncnc(OCCOc2ncc(C(F)(F)F)cn2)c1-c1ccccc1 [Example 95]", "pIC50": 7.48}
{"compound": "COCCOc1nc(NS(=O)(=O)/C=C/c2ccccc2)c(-c2ccccc2)c(OCCOc2ncc(Br)cn2)n1 [Example 113]", "pIC50": 7.83}
{"compound": "COc1cnc(OCCOc2nc(N3CCOCC3)nc(NS(=O)(=O)/C=C/c3ccccc3)c2Oc2ccccc2OC)nc1 [Example 197]", "pIC50": 8.30}

* * *

# target: ETB receptors (Rattus norvegicus)
# Construct: The thoracic aorta or trachea were excised, dissected and cut in 3-5 mm rings; from tissue; host or cells: tracheal rings of adult Wistar rats, epithelium removed
# Sequence (P21451 27-442): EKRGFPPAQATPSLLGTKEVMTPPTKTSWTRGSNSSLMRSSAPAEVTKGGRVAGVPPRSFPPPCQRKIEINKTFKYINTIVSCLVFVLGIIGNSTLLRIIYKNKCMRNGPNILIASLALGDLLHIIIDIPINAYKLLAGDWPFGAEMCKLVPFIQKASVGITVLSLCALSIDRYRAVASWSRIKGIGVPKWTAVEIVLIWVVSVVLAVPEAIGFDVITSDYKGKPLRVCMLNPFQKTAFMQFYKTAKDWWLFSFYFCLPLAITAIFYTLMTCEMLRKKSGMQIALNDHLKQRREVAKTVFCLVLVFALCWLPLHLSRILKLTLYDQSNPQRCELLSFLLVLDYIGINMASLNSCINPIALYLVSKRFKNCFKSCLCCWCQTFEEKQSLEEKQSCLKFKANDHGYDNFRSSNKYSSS
# experiment.description: Inhibition of sarafotoxin S6c-induced contractions on isolated rat tracheal rings
# Format: cell-based

{"structure.smiles": "Cc1ccc(-c2c(NS(=O)(=O)/C=C/c3ccccc3)nc(-c3ccncc3)nc2OCCOc2ncc(Br)cn2)cc1", "unit.abbreviation": "nM", "Kb": 6170}
{"structure.smiles": "Cc1ccc(-c2c(NS(=O)(=O)/C=C/c3ccccc3)ncnc2OCCOc2ncc(Br)cn2)cc1", "unit.abbreviation": "nM", "Kb": 81.3}
{"structure.smiles": "COc1ccccc1Oc1c(NS(=O)(=O)/C=C/c2cccs2)nc(-c2ccncc2)nc1OCCOc1ncc(Br)cn1", "unit.abbreviation": "nM", "Kb": 79.4}
{"structure.smiles": "COc1ccccc1Oc1c(NS(=O)(=O)/C=C/c2ccccc2)nc(N2CCOCC2)nc1OCCOc1ncc(Br)cn1", "unit.abbreviation": "nM", "Kb": 126}
{"structure.smiles": "COc1ccccc1Oc1c(NS(=O)(=O)/C=C/c2ccccc2)nc(-c2ncccn2)nc1OCCOc1ncccn1", "unit.abbreviation": "nM", "Kb": 912}
{"structure.smiles": "COc1ccccc1Oc1c(NS(=O)(=O)/C=C/c2ccccc2)nc(N2CCOCC2)nc1OCCOc1ncccn1", "unit.abbreviation": "nM", "Kb": 316}
{"structure.smiles": "COc1ccccc1Oc1c(NS(=O)(=O)/C=C/c2ccccc2)ncnc1OCCOc1ncc(Br)cn1", "unit.abbreviation": "nM", "Kb": 224}

* * *

This listing pairs molecules with measured Kb.
# target: ETA receptors (Rattus norvegicus, UniProt P26684)
# Construct: The thoracic aorta or trachea were excised, dissected and cut in 3-5 mm rings; from tissue; host or cells: thoracic aorta rings of adult Wistar rats, endothelium removed
# Sequence (P26684 21-426): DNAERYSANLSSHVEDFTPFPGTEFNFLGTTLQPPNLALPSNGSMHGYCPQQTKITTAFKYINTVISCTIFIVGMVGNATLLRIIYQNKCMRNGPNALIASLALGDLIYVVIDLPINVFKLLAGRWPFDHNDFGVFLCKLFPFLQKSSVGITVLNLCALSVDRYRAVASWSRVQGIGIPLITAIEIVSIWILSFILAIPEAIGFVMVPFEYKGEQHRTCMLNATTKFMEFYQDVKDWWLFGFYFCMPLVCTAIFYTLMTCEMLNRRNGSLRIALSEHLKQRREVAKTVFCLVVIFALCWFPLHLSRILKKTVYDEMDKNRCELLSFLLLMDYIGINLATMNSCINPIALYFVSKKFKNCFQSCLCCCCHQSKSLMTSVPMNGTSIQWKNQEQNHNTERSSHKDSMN
# experiment.description: Inhibition of endothelin-1-induced contractions on isolated rat aortic rings
# Format: cell-based
# assay.context: read-out: pA2 value ETA (converted)

{"structure.smiles": "Cc1ccc(-c2c(NS(=O)(=O)/C=C/c3cccs3)ncnc2OCCOc2ncc(Br)cn2)cc1", "Kb / nM": 0.316}
{"structure.smiles": "COc1ccccc1Oc1c(NS(=O)(=O)/C=C/c2ccccc2)nc(N2CCOCC2)nc1OCCOc1ncc(Cl)cn1", "Kb / nM": 9.12}
{"structure.smiles": "O=S(=O)(/C=C/c1ccccc1)Nc1ncnc(OCCOc2ncc(Br)cn2)c1-c1ccc(Br)cc1", "Kb / nM": 0.851}
{"structure.smiles": "Cc1ccc(-c2c(NS(=O)(=O)/C=C/c3ccccc3)nc(-c3ccncc3)nc2OCCOc2ncc(Br)cn2)cc1", "Kb / nM": 4.47}

* * *

# target: human recombinant ETB receptors (Homo sapiens)
# Construct: expressed in transfected cells; host or cells: CHO cells (microsomal membranes)
# Sequence (P24530 27-442): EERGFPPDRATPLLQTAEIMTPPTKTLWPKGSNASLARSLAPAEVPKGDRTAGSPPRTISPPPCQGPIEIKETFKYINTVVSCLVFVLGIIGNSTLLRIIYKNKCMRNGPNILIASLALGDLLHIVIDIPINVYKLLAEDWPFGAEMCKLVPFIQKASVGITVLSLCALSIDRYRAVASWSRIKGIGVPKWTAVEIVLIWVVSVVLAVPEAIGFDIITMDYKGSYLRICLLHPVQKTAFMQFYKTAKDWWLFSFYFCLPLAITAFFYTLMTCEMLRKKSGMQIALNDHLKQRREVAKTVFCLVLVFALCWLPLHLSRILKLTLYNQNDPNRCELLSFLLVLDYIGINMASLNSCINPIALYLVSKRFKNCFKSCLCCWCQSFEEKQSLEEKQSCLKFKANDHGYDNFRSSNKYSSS
# experiment.description: Inhibition of [125I]ET-1 binding to membranes from CHO cells carrying human ETB receptors
pIC50: −log10 of the molar value.
reported.property: pIC50

{"structure.smiles": "COc1ccc(Cl)c(Oc2c(NS(=O)(=O)/C=C/c3ccccc3)nc(-c3ccncc3)nc2OCCOc2ncc(Br)cn2)c1", "target": "human recombinant ETB receptors (Homo sapiens)", "reading.qualifier": "=", "meas.value": 5.41}
{"structure.smiles": "CSc1nc(NS(=O)(=O)/C=C/c2ccccc2)c(-c2ccccc2)c(OCCOc2ncc(Br)cn2)n1", "target": "human recombinant ETB receptors (Homo sapiens)", "reading.qualifier": "=", "meas.value": 5.06}
{"structure.smiles": "O=S(=O)(/C=C/c1ccccc1)Nc1nc(-c2ccncc2)nc(OCCOc2ncc(Br)cn2)c1-c1ccccc1", "target": "human recombinant ETB receptors (Homo sapiens)", "reading.qualifier": "<", "meas.value": 5.00}
{"structure.smiles": "COc1ccccc1Oc1c(NS(=O)(=O)/C=C/c2cccs2)nc(-c2ccncc2)nc1OCCOc1ncc(Br)cn1", "target": "human recombinant ETB receptors (Homo sapiens)", "reading.qualifier": "=", "meas.value": 6.01}
{"structure.smiles": "C/C(=C\\c1ccccc1)S(=O)(=O)Nc1ncnc(OCCOc2ncc(Br)cn2)c1-c1ccc(Cl)cc1", "target": "human recombinant ETB receptors (Homo sapiens)", "reading.qualifier": "=", "meas.value": 5.31}
{"structure.smiles": "O=S(=O)(/C=C/c1ccccc1)Nc1ncnc(OCCOc2ncc(F)cn2)c1-c1ccc(Cl)cc1", "target": "human recombinant ETB receptors (Homo sapiens)", "reading.qualifier": "=", "meas.value": 5.16}
{"structure.smiles": "COc1cccc(Oc2c(NS(=O)(=O)/C=C/c3ccccc3)ncnc2OCCOc2ncc(SC)cn2)c1", "target": "human recombinant ETB receptors (Homo sapiens)", "reading.qualifier": "=", "meas.value": 6.54}
{"structure.smiles": "COc1cnc(OCCOc2nc(-c3ccncc3)nc(NS(=O)(=O)/C(C)=C/c3ccccc3)c2Oc2ccccc2OC)nc1", "target": "human recombinant ETB receptors (Homo sapiens)", "reading.qualifier": "=", "meas.value": 6.44}
{"structure.smiles": "O=S(=O)(/C=C/c1ccccc1)Nc1ncnc(OCCOc2ncc(Cl)cn2)c1-c1ccc(Cl)cc1", "target": "human recombinant ETB receptors (Homo sapiens)", "reading.qualifier": "=", "meas.value": 6.12}
{"structure.smiles": "Cc1ccc(-c2c(NS(=O)(=O)/C=C/c3ccccc3)nc(-c3cnccn3)nc2OCCOc2ncc(Br)cn2)cc1", "target": "human recombinant ETB receptors (Homo sapiens)", "reading.qualifier": "=", "meas.value": 5.57}
{"structure.smiles": "COc1cnc(OCCOc2ncnc(NS(=O)(=O)/C=C/c3ccccc3)c2-c2ccc(Br)cc2)nc1", "target": "human recombinant ETB receptors (Homo sapiens)", "reading.qualifier": "=", "meas.value": 6.71}
{"structure.smiles": "COc1ccccc1Oc1c(NS(=O)(=O)/C=C/c2ccccc2)nc(-c2ccncc2)nc1OCCOc1ncc(Cl)cn1", "target": "human recombinant ETB receptors (Homo sapiens)", "reading.qualifier": "=", "meas.value": 5.81}
{"structure.smiles": "COc1cnc(OCCOc2nc(-c3ncccn3)nc(NS(=O)(=O)/C=C/c3ccccc3)c2-c2ccc(C)cc2)nc1", "target": "human recombinant ETB receptors (Homo sapiens)", "reading.qualifier": "=", "meas.value": 5.51}
{"structure.smiles": "Cc1ccc(/C=C/S(=O)(=O)Nc2ncnc(OCCOc3ncc(Cl)cn3)c2-c2ccc(Cl)cc2)cc1", "target": "human recombinant ETB receptors (Homo sapiens)", "reading.qualifier": "=", "meas.value": 6.25}
{"structure.smiles": "COc1cnc(OCCOc2nc(-c3cnccn3)nc(NS(=O)(=O)/C=C/c3ccccc3)c2-c2ccc(C)cc2)nc1", "target": "human recombinant ETB receptors (Homo sapiens)", "reading.qualifier": "=", "meas.value": 5.44}
{"structure.smiles": "Cc1ccc(-c2c(NS(=O)(=O)/C=C/c3ccccc3)ncnc2OCCOc2cnccn2)cc1", "target": "human recombinant ETB receptors (Homo sapiens)", "reading.qualifier": "=", "meas.value": 5.07}
{"structure.smiles": "Cc1ccc(-c2c(NS(=O)(=O)/C=C/c3ccccc3)ncnc2OCCOc2ccc(C(F)(F)F)cn2)cc1", "target": "human recombinant ETB receptors (Homo sapiens)", "reading.qualifier": "=", "meas.value": 6.89}
{"structure.smiles": "COc1ccc(Cl)c(Oc2c(NS(=O)(=O)/C=C/c3ccccc3)ncnc2OCCOc2ncc(Br)cn2)c1", "target": "human recombinant ETB receptors (Homo sapiens)", "reading.qualifier": "=", "meas.value": 6.08}
{"structure.smiles": "Cc1ccc(-c2c(NS(=O)(=O)/C=C/c3ccccc3)ncnc2OCCOc2ccc(Br)cn2)cc1", "target": "human recombinant ETB receptors (Homo sapiens)", "reading.qualifier": "=", "meas.value": 6.58}
{"structure.smiles": "COc1cnc(OCCOc2ncnc(NS(=O)(=O)/C=C/c3ccccc3)c2Oc2cc(OC)ccc2Cl)nc1", "target": "human recombinant ETB receptors (Homo sapiens)", "reading.qualifier": "=", "meas.value": 5.81}
{"structure.smiles": "Cc1ccc(-c2c(NS(=O)(=O)/C=C/c3ccccc3)ncnc2OCCOc2ncc(Br)cn2)cc1", "target": "human recombinant ETB receptors (Homo sapiens)", "reading.qualifier": "=", "meas.value": 6.24}
{"structure.smiles": "COc1ccccc1Oc1c(NS(=O)(=O)/C=C/c2cccs2)ncnc1OCCOc1ncc(Br)cn1", "target": "human recombinant ETB receptors (Homo sapiens)", "reading.qualifier": "=", "meas.value": 5.40}
{"structure.smiles": "COc1ccccc1Oc1c(NS(=O)(=O)/C(C)=C/c2ccccc2)nc(-c2ccncc2)nc1OCCOc1ncc(Cl)cn1", "target": "human recombinant ETB receptors (Homo sapiens)", "reading.qualifier": "=", "meas.value": 5.97}
{"structure.smiles": "COc1ccc(-c2c(NS(=O)(=O)/C=C/c3ccccc3)ncnc2OCCOc2ccc(Br)cn2)cc1", "target": "human recombinant ETB receptors (Homo sapiens)", "reading.qualifier": "=", "meas.value": 6.51}
{"structure.smiles": "COc1ccccc1Oc1c(NS(=O)(=O)/C=C/c2ccccc2)nc(-c2ncccn2)nc1OCCOc1ncccn1", "target": "human recombinant ETB receptors (Homo sapiens)", "reading.qualifier": "=", "meas.value": 5.32}
{"structure.smiles": "COc1cnc(OCCOc2ncnc(NS(=O)(=O)/C=C/c3ccccc3)c2-c2ccc(C)cc2)nc1", "target": "human recombinant ETB receptors (Homo sapiens)", "reading.qualifier": "=", "meas.value": 6.13}
{"structure.smiles": "Cc1ccc(-c2c(NS(=O)(=O)/C=C/c3cccs3)ncnc2OCCOc2ncc(Br)cn2)cc1", "target": "human recombinant ETB receptors (Homo sapiens)", "reading.qualifier": "=", "meas.value": 6.12}
{"structure.smiles": "Cc1ccc(-c2c(NS(=O)(=O)/C=C/c3ccccc3)ncnc2OCCOc2ncccn2)cc1", "target": "human recombinant ETB receptors (Homo sapiens)", "reading.qualifier": "=", "meas.value": 5.74}
{"structure.smiles": "COc1ccccc1Oc1c(NS(=O)(=O)/C=C/c2ccccc2)nc(N2CCOCC2)nc1OCCOc1ncc(Br)cn1", "target": "human recombinant ETB receptors (Homo sapiens)", "reading.qualifier": "=", "meas.value": 6.27}
